TEST_SUMMARY: gradient 5% acetonitrile 3 min, to 50% in 2 min, to 85% in 15 min, held 3 min, 100 µL/min
CONDITIONS: column: Zorbax Extend-C18 2.1 x 50 mm; eluents: water / acetonitrile, 0.1% formic acid
Assignment: determine reported RP-LC retention time for the given compounds.
Kindly answer with a numeric value in s, unit omitted.

Which RP-LC retention time is listed for Cc1[nH]c(C(=O)N2CCC(CC(=O)NCCCN3CCC(N4CCCCC4)CC3)CC2)c(C)c1C ?
575

Next: O=C1NCCCCCCN(Cc2ccc(F)cc2F)[C@H]2CCC[C@@H]12
646

Next: COc1cccc(CNC(=O)Cc2csc3nc(-c4ccc(OC)c(OC)c4)cn23)c1
698

Next: CCOC(=O)c1cccc(NC(=O)c2sccc2S(=O)(=O)N(C)c2ccc(OCC)cc2)c1
1220

Next: O=C(c1ccsc1)N1CCn2c(nnc2-c2ccccc2)C1
611

Next: Cc1ccc(CNC(=O)C2(C)CN(S(C)(=O)=O)CC(=O)N2c2ccccc2F)cc1 (centres undefined)
804

Next: CN1CCCn2nc(C3CCN(C(=O)Nc4cccc(C#N)c4)CC3)cc2C1=O
656

Next: O=C(Nc1ccc(Cl)cc1)N1CCCC1c1nc(-c2ccccc2)no1 (centres undefined)
1040

Next: COc1ccc(OCc2noc(CNC(=O)CSc3nc4ccccc4o3)n2)cc1
806

Next: CCOc1ccc(-c2nc(C3CC(=O)N(c4ccc(OC)cc4)C3)no2)cc1OCC (centres undefined)
927

Next: COc1cc(OC)c(NC(=O)c2[nH]c(C)c(S(=O)(=O)N3CCCC3)c2C)cc1Cl
982

Next: COc1ccc(CNC(=O)C2CCN(c3nccn4nc(-c5cccs5)cc34)CC2)cc1
754

Next: COC(=O)c1c(NCCO)c2cc(F)ccc2[nH]c1=O
590

Next: Cc1cc2[nH]c(C(=O)Nc3cc(F)ccc3F)c(CN3CCCC3)c2s1
702

Next: COc1ccc(NC(=O)Cn2c(C)cc(-c3nnc(C4CC4)o3)c2C)cc1Cl
856

Next: O=C(Cn1cccc1-c1nc(-c2ccc3c(c2)OCO3)no1)Nc1ccc(F)cc1
994

Next: COc1cc(OC)cc(-c2nc(-c3cccc(-c4ccn[nH]4)c3)no2)c1
1010

Next: CCOc1ccc(S(=O)(=O)N2CCC(C(=O)NC)CC2)cc1C
761

Next: Cc1nc2ccn(Cc3ccco3)c(=O)c2cc1C(=O)NCCC1=CCCCC1
828

###

TEST_SUMMARY: gradient 5% acetonitrile 3 min, to 50% in 2 min, to 85% in 15 min, held 3 min, 100 µL/min
CONDITIONS: column: Zorbax Extend-C18 2.1 x 50 mm; eluents: water / acetonitrile, 0.1% formic acid
MEASUREMENT_TYPE: RP-LC retention time (s)
Kindly answer with a numeric value in s, unit omitted.

Which RP-LC retention time is listed for O=C(C1=CN(c2ccc(Br)cc2)c2cc(F)ccc2S1(=O)=O)N1CCOCC1 ?
826

Next: O=C(NCCCN1CCc2ccccc2C1)c1nnc(-c2ccc(S(=O)(=O)N3CCCC3)cc2)o1
680

Next: CS(=O)(=O)N1CCCC(C(=O)NC2CC2)CCNC(=O)CC1 (stereo not given)
816

Next: CCN1CCN(C(=O)Cn2cccc2-c2nnc(-c3ccccc3)o2)CC1
636

Next: O=C(NCc1cnccn1)c1ccnc(N2CCNC(c3ccccc3)C2)c1 (stereo not given)
581
